test summary: AUClast in ICR-CD1 mouse plasma at 40 mg/kg, po
Type: ADME, organism-based
parameter measured: AUC(0-t) (ng·h/mL)
# number only, unit ng·h/mL dropped from output

query: Which AUC(0-t) value belongs to CCC1=C(CC)/C(=C/NC2CCCCC2)N=C1c1ccc(C)[nH]1 ?
result: 67600

###

test summary: Solubility of the compound in potassium phosphate buffer at pH 7.4 by UV-vis spectroscopy
measurement setup: buffer
parameter measured: solubility (µM)
# number only, unit µM dropped from output

query: Which solubility value belongs to CCC1=C(CC)/C(=C/NC23C[C@H]4C[C@@H](C2)C[C@@H](C3)C4)N=C1c1ccc(CC)[nH]1 ?
result: 10.3

query: Which solubility value belongs to C(/NC1CCCCC1)=C1/N=C(c2ccc[nH]2)C2=C1OCCO2 ?
result: 231

query: Which solubility value belongs to COC1=C(OC)/C(=C/NC23C[C@H]4C[C@@H](C2)C[C@@H](C3)C4)N=C1c1ccc[nH]1 ?
result: 167

query: Which solubility value belongs to CCC1=C(CC)/C(=C/NC23C[C@H]4C[C@@H](C2)C[C@@H](C3)C4)N=C1c1ccc(Br)[nH]1 ?
result: 25.8

query: Which solubility value belongs to C(/NC1CCCCCC1)=C1/N=C(c2ccc[nH]2)C2=C1OCCO2 ?
result: 183
